# system: FRMPD4, Q14CM0
# Sequence (Q14CM0 67-160): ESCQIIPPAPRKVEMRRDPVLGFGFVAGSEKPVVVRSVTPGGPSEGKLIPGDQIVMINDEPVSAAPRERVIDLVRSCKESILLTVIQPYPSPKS
# test-protocol: holdup assay
# Set-up: key: below the threshold = too weak to quantify, mostly under pKd 3.1 to 4
# study-conditions: plain residues with an end cap or a label only (N-terminal biotin on a linker: ttds)
Everything with pKd lower than 4 is condition not met; everything else, including exactly 4, is condition met.

{"columns": ["binder", "group"],
 "data": [
  ["RSLEEEESQL [GRASP, Q7Z6J2]", "condition met"],
  ["IDNDTESTAL [ARHGAP17, Q68EM7]", "condition met"],
  ["STLTIFETAL [ABCC4, O15439]", "condition met"],
  ["SSRTRRETQL [HPV16-E6, P03126]", "condition not met"],
  ["IYVPEAQTRL [DLGAP4, Q9Y2H0]", "condition met"]
]}

query: Given the entry PKTPPTDTSV [KIR3DL3, Q8N743] , answer whether its pKd meets or surpasses 4.
result: condition not met

query: QSARYRDTEL [TJP2, Q9UDY2] ?
result: condition met

query: GQDSREETQL [KCNT2, Q6UVM3] ?
result: condition met
